Sourced from paper PMC12864922

# measured target: TDP-43 (Homo sapiens, UniProt Q13148 1-414)
# Sequence (Q13148 whole entry): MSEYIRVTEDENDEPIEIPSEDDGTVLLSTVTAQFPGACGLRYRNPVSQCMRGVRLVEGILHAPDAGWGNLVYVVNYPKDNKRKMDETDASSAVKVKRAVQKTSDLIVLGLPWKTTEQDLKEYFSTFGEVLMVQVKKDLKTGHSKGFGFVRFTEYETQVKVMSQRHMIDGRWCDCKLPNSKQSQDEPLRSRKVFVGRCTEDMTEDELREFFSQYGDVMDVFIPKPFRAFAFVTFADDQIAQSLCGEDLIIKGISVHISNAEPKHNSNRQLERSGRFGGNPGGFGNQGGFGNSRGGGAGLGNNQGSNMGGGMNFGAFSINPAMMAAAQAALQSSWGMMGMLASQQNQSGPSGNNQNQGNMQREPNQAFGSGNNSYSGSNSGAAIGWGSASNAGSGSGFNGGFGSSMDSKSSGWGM
# experiment summary: RNA Bind-n-Seq with designed 260-mer pool; 25 mM Tris-HCl, 150 mM KCl, 3 mM MgCl2, BSA (printed 500 mg/mL), 20 units/mL SUPERase IN; pH not stated; 500 nM RNA pool, 1 h, 4 C; TDP-43 5, 50, 500 nM; high values mean tight binding
# applied conditions: protein: recombinant; tags: SBP (GST cleaved off with PreScission; pGEX-GST-SBP)
In all, about 9,900 sequences were measured (“r (bound/input frequency ratio)”: median about 0.7, highest 2% from about 6.5 on). The entries come from a sample that favours the highest values as a whole.
experimental readout: binding signal

### Prompt Fill in the blank: the reported binding signal of ENSMUSG00000061578.444|Ksr2 (ssRNA) RNA: GGGAGUUCUACAGUCCGACGAUCGCUUCGAUAUCCGCAUGCUAAAUCCUUCAAGACAGAAGUUUCAGAGGGGAUAGUUCCUUCUAACCUUGUACUGGGACAUCAUCUAUGUCCCCAUCCCCAGAGCUGAAUUAGAGACACCAAGUAGCCUCUUGGGUUGUUUUGUGGGGUGUUCCCCUUGCUGGUCAAAGGAGUGGAAAGCCACCUUGCUGUAAAUGCUCUUGUUUUCUGUAGCAAUCUUGAACUCUUUUUUUUUUUUGUUCGUUUGUUUGUUUGUUUGUUUGUUUGUUUUUUCAAGACAGGGCUCUUGCGGUCGCACUAGUGUGGAAUUCUCGGGUGUCAAGG is ____.
### Response 2.36 R (bound/input frequency ratio)

### Prompt // returns reported binding signal for input ENSMUSG00000042529.39|Kcnj12 (ssRNA) RNA: GGGAGUUCUACAGUCCGACGAUCGCUUCGAUAUCCGCAUGCUAGUUUUUUCGCAGUAGCUUGGGAAAGUUGGCGGGAGCGUGGAUGGCCAAAAUGACUGGCUCACGGCCUCGGAGGCUGAUGUAUACCCAUGGGCAAGGAGGUGACUUCUUGGGGUAGGGUUGCUCAGGAGUUAGGGACUCUGCUGGAGGCCUUAGGUGCAGGUCCCAGCCCCGGUGGGAGGAGGCUGUGUAUGUACACUUCAUUGGUUUUUAACUUGGGCAAGACUGUUUACAAACAAAAACAAACAAACAAACAAUCAAAACUCUUGCGGUCGCACUAGUGUGGAAUUCUCGGGUGUCAAGG
### Response 1.88 R (bound/input frequency ratio)
